# Measurement notes: in vivo
# Measurement conditions: female, ICR, mouse, plasma, iv, 2 mg/kg

- Structure smiles: "CO[C@@H](C(N)=O)[C@H](NC(=O)c1ccc(NC(=O)c2ccc([N+](=O)[O-])cc2)cc1)C(=O)Nc1ccc(C(=O)Nc2ccc(C(=O)Nc3ccc(C(=O)O)cc3OC(C)C)c(O)c2OC(C)C)cc1"
  Units text: "h"
  half-life: 2.16

---

# Test system: VRE
# Measurement notes: MIC, broth microdilution, clinical isolates: VRE
# Type: cell-based, vancomycin-resistant Enterococcus
# Measurement conditions: Enterococcus, VRE; 46 clinical isolates; read-out: MIC50
Form field: MIC50 (one value per entry).

- Structure smiles: "CC(C)(O/N=C(\\C(=O)N[C@@H]1C(=O)N2C(C(=O)[O-])=C(C[n+]3ccccc3)CS[C@H]12)c1csc(N)n1)C(=O)O"
  Units text: "µg/mL"
  Value qualifier: ">"
  MIC50: 32
- Structure smiles: "CCCCCCCCCC(=O)N[C@@H](Cc1c[nH]c2ccccc12)C(=O)N[C@H](CC(N)=O)C(=O)N[C@@H](CC(=O)O)C(=O)N[C@@H]1C(=O)NCC(=O)N[C@@H](CCCN)C(=O)N[C@@H](CC(=O)O)C(=O)N[C@H](C)C(=O)N[C@@H](CC(=O)O)C(=O)NCC(=O)N[C@H](CO)C(=O)N[C@@H]([C@H](C)CC(=O)O)C(=O)N[C@@H](CC(=O)c2ccccc2N)C(=O)O[C@@H]1C"
  Units text: "µg/mL"
  Value qualifier: "="
  MIC50: 4
